Consider the following compounds; for each one, report its Binding selectivity ratio (Bcl-XL Ki/Bcl-2 Ki).
Test system: GST-Bcl-2
Experiment: TR-FRET binding assay, Bcl-2
Conditions: TR-FRET Ki values
Answers are plain numbers.

Here is how some compounds turned out for Binding selectivity ratio (Bcl-XL Ki/Bcl-2 Ki).
CN1CCN(Nc2ccc(S(=O)(=O)NC(=O)c3ccc(N4CCN(CC5=C(c6ccc(Cl)cc6)CC(C)(C)CC5)CC4)cc3Oc3ccc4[nH]ccc4c3)cc2[N+](=O)[O-])CC1    591.3
O=C(NS(=O)(=O)c1ccc(NCC2CCOCC2)c([N+](=O)[O-])c1)c1ccc(N2CCN(Cc3ccccc3-c3ccc(Cl)cc3)CC2)cc1Oc1cccc2ccccc12    44.3
O=C(NS(=O)(=O)c1ccc(NCCCN2CCOCC2)c(S(=O)(=O)C(F)(F)F)c1)c1ccc(N2CCN(Cc3ccccc3-c3ccc(Cl)cc3)CC2)cc1Oc1cccc2[nH]ccc12    4.8

Each of the following entries comes with a recorded value; kindly state Binding selectivity ratio (Bcl-XL Ki/Bcl-2 Ki) for each.
1. CC1(C)CCC(CN2CCN(c3ccc(C(=O)NS(=O)(=O)c4ccc(NCCCN5CCCC5)c([N+](=O)[O-])c4)c(Oc4ccc5[nH]ccc5c4)c3)CC2)=C(c2ccc(Cl)cc2)C1
2. CC1(C)CCC(CN2CCN(c3ccc(C(=O)NS(=O)(=O)c4ccc(NN5CCOCC5)c([N+](=O)[O-])c4)c(Oc4cccc5[nH]ccc45)c3)CC2)=C(c2ccc(Cl)cc2)C1
3. CN1CCC(CNc2ccc(S(=O)(=O)NC(=O)c3ccc(N4CCN(Cc5ccccc5-c5ccc(Cl)cc5)CC4)cc3Oc3ccccc3)cc2[N+](=O)[O-])CC1
4. CC1(C)CCC(CN2CCN(c3ccc(C(=O)NS(=O)(=O)c4cnc(OC[C@H]5CC[C@H](O)CC5)c(Cl)c4)c(Oc4cccc5[nH]ncc45)c3)CC2)=C(c2ccc(Cl)cc2)C1

[reply]
1: 96.7; 2: 219.9; 3: 67.3; 4: 2090

Each of the following entries comes with a recorded value; kindly state Binding selectivity ratio (Bcl-XL Ki/Bcl-2 Ki) for each.
1. O=C(NS(=O)(=O)c1ccc(NCC2CCOCC2)c([N+](=O)[O-])c1)c1ccc(N2CCN(Cc3cc(OCCN4CCCC4)ccc3-c3ccc(Cl)cc3)CC2)cc1Oc1ccccc1
2. CC1(C)CCC(CN2CCN(c3ccc(C(=O)NS(=O)(=O)c4cnc(OCCC5CCCO5)c(Cl)c4)c(Oc4cccc5[nH]ncc45)c3)CC2)=C(c2ccc(Cl)cc2)C1 (centres unmarked)

[reply]
1: 574.9; 2: 39.44
